Tested on: Yap1 mRNA
Procedure Text: Dose-dependent inhibition of human Yap1 in A-431 cells (Example 8, 10,000 cells per well, RTS4814)
Format: cell-based
Cond: A-431 cells, free uptake, approximately 48 hours, RTS4814; linear regression on log/linear plot
Strand notation (5' to 3'): a small letter for the sugar, then the base; units joined by * are phosphorothioate-linked, units joined directly phosphodiester-linked; [ ] holds rarer units or linkages, { } end groups; capitals alone tell only the bases. k = constrained ethyl (cEt); [5mC] = 5-methylcytosine; d = 2'-deoxy (DNA)
Below, each of the substances is paired with its reported IC50 value.

# Substance, IC50
records = [
    ("1074577 (DNA kT*kA*kT*dT*dT*d[5mC]*dT*dG*dT*d[5mC]*dA*dT*dG*k[5mC]*kA*k[5mC]) [compound 1074577]", "< 20 nM"),
    ("1075118 (k[5mC]*kT*kA*dT*dT*dT*dA*d[5mC]*dT*d[5mC]*dT*dG*dT*k[5mC]*kA*k[5mC]; antisense) [compound 1075118]", "100 nM"),
    ("1076494 (k[5mC]*kT*kA*dA*dT*dT*dG*dA*dA*dG*d[5mC]*dT*dG*kG*k[5mC]*kA; antisense) [compound 1076494]", "< 20 nM"),
    ("1074508 (kG*kA*kG*dA*dG*dA*dG*d[5mC]*dA*dG*dA*dT*dA*kA*kT*k[5mC]; antisense) [compound 1074508]", "50 nM"),
    ("1076295 (kG*kT*kA*dT*dA*dT*dT*dA*dG*dT*dG*d[5mC]*d[5mC]*k[5mC]*k[5mC]*k[5mC]; antisense) [compound 1076295]", "< 20 nM"),
]

[in] Recall the recorded IC50 for 1075249 (kA*kT*kT*dA*d[5mC]*dG*dA*dT*dT*dA*dG*dA*dT*k[5mC]*kA*kG; antisense) [compound 1075249] with Yap1 mRNA and state it.
[out] 100 nM

[in] Lab request: please report IC50 under test system Yap1 mRNA for 1074726 (antisense kG*kG*kT*dA*dT*dA*dA*d[5mC]*dT*dG*dG*dG*d[5mC]*kA*kA*kA) [compound 1074726]
[out] < 20 nM

[in] State its IC50 on Yap1 mRNA: 1076004 (kT*kA*kA*dT*dT*dT*dA*dA*dT*dG*dG*d[5mC]*dT*kT*kG*k[5mC]; antisense) [compound 1076004]
[out] < 20 nM

[in] I'm curious: which IC50 was measured for 1075778 (k[5mC]*kA*kT*dT*dT*dA*dT*dA*d[5mC]*d[5mC]*dA*dG*dG*k[5mC]*kA*k[5mC]; antisense) [compound 1075778] tested on Yap1 mRNA?
[out] 30 nM

[in] For the record 1074509 (kT*kG*kT*dT*dA*dT*dG*dT*dT*dT*dG*dG*dG*kT*kG*kT; antisense) [compound 1074509] , what value of IC50 is listed for Yap1 mRNA?
[out] < 20 nM

[in] Form entry - test system: Yap1 mRNA; read-out: IC50; substance: 1076003 (kA*kA*kT*dT*dT*dA*dA*dT*dG*dG*d[5mC]*dT*dT*kG*k[5mC]*kA; antisense) [compound 1076003]
[out] 40 nM

[in] Request body: readout IC50, system Yap1 mRNA, query 1074627 (DNA k[5mC]*k[5mC]*kT*dG*dT*dT*dA*dT*dG*dA*dA*d[5mC]*d[5mC]*k[5mC]*kT*kT; antisense) [compound 1074627] . Return the value.
[out] < 20 nM

[in] // map 1074675 (antisense kA*kA*kA*dT*dT*dA*dT*dA*dG*dG*d[5mC]*dA*d[5mC]*kT*k[5mC]*k[5mC]) [compound 1074675] to recorded IC50 (system: Yap1 mRNA)
[out] < 20 nM

[in] Give recorded IC50 with Yap1 mRNA for the following substance: 1074723 (antisense kG*kG*kT*dA*dA*dA*dG*dG*dA*dA*dG*dA*dT*k[5mC]*kT*k[5mC]) [compound 1074723]
[out] < 20 nM

[in] Query the reported IC50 for Yap1 mRNA; item: 1075749 (kA*kA*kT*dT*dA*dT*dG*dA*dA*dT*dG*dA*dT*kG*kG*kG; antisense) [compound 1075749]
[out] < 20 nM

[in] Lab note: need IC50 for 1074594 (DNA kT*kA*kG*dG*dA*dG*d[5mC]*dA*dA*dG*dT*d[5mC]*dT*kT*kG*kT) [compound 1074594] on Yap1 mRNA, anyone have it?
[out] < 20 nM

[in] Which IC50 is reported with Yap1 mRNA for this entry: 1075916 (antisense k[5mC]*kA*kA*dT*dT*dT*dA*dG*dG*dA*dT*dG*d[5mC]*k[5mC]*kT*kT) [compound 1075916] ?
[out] 100 nM

[in] Give IC50 (Yap1 mRNA) of the following substance: 1076070 (kA*kT*kT*dA*dG*dT*dA*dA*dT*dG*d[5mC]*dA*d[5mC]*kA*kG*kG; antisense) [compound 1076070]
[out] < 20 nM

[in] Provide value of IC50 for this record tested with Yap1 mRNA: 1076530 (kA*kG*kT*dA*dT*dA*dA*dA*dG*d[5mC]*dA*dG*dG*kG*k[5mC]*kA; antisense) [compound 1076530]
[out] < 20 nM
